- Assayed Target: SARS-CoV-2 Papain-Like Protease (PLpro) (Severe acute respiratory syndrome coronavirus 2 (2019-nCoV) (SARS-CoV-2), UniProt P0DTD1)
- Procedure Details: biochemical
- Experimental Setup: SARS-CoV-2 PLpro enzymatic fluorescence assay; read-out: PLpro IC50
pIC50: −log10 of the molar value.
Experimental Readout: pIC50

>  <Compound>
Cc1nc2cccc(C3(NC(=O)c4cc(OCCN(C)C)ccc4C)CC3)c2s1

>  <Test Result>
6.00 to 7.00

$$$$
>  <Compound>
Cc1ccc(OC[C@H](C)N)cc1C(=O)NC1(c2cc(Br)cc3ccccc23)CC1

>  <Test Result>
> 7.00

$$$$
>  <Compound>
Cc1ccc(OCCN(C)C)cc1C(=O)NC1(c2cccc3ccc(O)cc23)CC1

>  <Test Result>
> 7.00

$$$$
>  <Compound>
Cc1cc2c(cc1C(=O)NC1(c3cccc4ccccc34)CC1)NCC2

>  <Test Result>
6.00 to 7.00

$$$$
>  <Compound>
Cc1cc2sc(CN)nc2cc1C(=O)NC1(c2cccc3ccccc23)CC1

>  <Test Result>
> 7.00

$$$$
>  <Compound>
Cc1ccc(N)cc1S(=O)(=O)N[C@H](C)c1cccc2ccccc12

>  <Test Result>
< 5.30

$$$$
>  <Compound>
Cc1ccc(N2CCC(N)CC2)cc1C(=O)NC1(c2cccc3ccccc23)CC1

>  <Test Result>
6.00 to 7.00

$$$$
>  <Compound>
CNCCc1cc2cc(C)c(C(=O)NC3(c4cccc5ccccc45)CC3)cc2[nH]1

>  <Test Result>
6.00 to 7.00

$$$$
>  <Compound>
Cc1ccc(OCC2CCN2C(C)C)cc1C(=O)NC1(c2cccc3ccccc23)CC1 (centres unmarked)

>  <Test Result>
> 7.00

$$$$
>  <Compound>
C#CC(NC(=O)c1cc(OCC2CCN2C)ccc1C)c1cccc2ccccc12 (centres unmarked)

>  <Test Result>
5.30 to 6.00

$$$$
>  <Compound>
COc1cc(C2(NC(=O)c3cc(OCC4CCN4C)ccc3C)COC2)c2ccccc2c1 (centres unmarked)

>  <Test Result>
> 7.00

$$$$
>  <Compound>
CN[C@@H](C)COc1ccc(C)c(C(=O)NC2(c3cc(OC)cc4ncccc34)CC2)c1

>  <Test Result>
> 7.00

$$$$
>  <Compound>
Cc1ccc(OCCN(C)C)cc1C(=O)NC1(c2cccc(C3=CCCC3)c2)CC1

>  <Test Result>
5.30 to 6.00

$$$$
>  <Compound>
Cc1ccc(OCC2CCN2C)cc1C(=O)NC1(c2cccc3c2OCCO3)CC1 (centres unmarked)

>  <Test Result>
6.00 to 7.00

$$$$
>  <Compound>
Cc1ccc(N)cc1C(=O)NC(c1cccc2ccccc12)C1CCOCC1 (centres unmarked)

>  <Test Result>
< 5.30

$$$$
>  <Compound>
Cc1ccc(OCC2CCN2C)cc1C(=O)NC1(c2cccc3cnccc23)CC1 (centres unmarked)

>  <Test Result>
> 7.00

$$$$
>  <Compound>
Cc1ccc(OCC23CCCN2CCC3)cc1C(=O)NC1(c2cccc3ccccc23)CC1

>  <Test Result>
> 7.00

$$$$

The reported measurements were obtained from patent US20250025443A1.
